# Tested on: Rattus norvegicus
# ASSAY EXPLANATION: Distribution of radioactivity was determined in lung at 3h after intravenous administration of [125I]-labeled 2-oleoglycerol 1,3-Bis-[omega-(3-amino-2,4,6-triiodophenyl)alkanoates] in rats
# Type: ADME, organism-based
# RUN PARAMETERS: in vivo
MEASURED PARAMETER: Distribution of radioactivity

MOLECULE	VALUE MEASURED
CCCCCCCC/C=C/CCCCCCCC(=O)OC(COC(=O)C(CC)Cc1c(I)cc(I)c(N)c1I)COC(=O)C(CC)Cc1c(I)cc(I)c(N)c1I (stereo not given)	0.2 % dose/g
CCCCCCCC/C=C/CCCCCCCC(=O)OC(COC(=O)CCCCCc1c(I)cc(I)c(N)c1I)COC(=O)CCCCCc1c(I)cc(I)c(N)c1I	0.21 % dose/g
CCCCCCCC/C=C/CCCCCCCC(=O)OC(COC(=O)CCCCc1c(I)cc(I)c(N)c1I)COC(=O)CCCCc1c(I)cc(I)c(N)c1I	0.46 % dose/g
CCCCCCCC/C=C/CCCCCCCC(=O)OC(COC(=O)CCCCCCc1c(I)cc(I)c(N)c1I)COC(=O)CCCCCCc1c(I)cc(I)c(N)c1I	0.34 % dose/g
CCCCCCCC/C=C/CCCCCCCC(=O)OC(COC(=O)Cc1c(I)cc(I)c(N)c1I)COC(=O)Cc1c(I)cc(I)c(N)c1I	0.38 % dose/g

---

Below, each entry is listed alongside its reported Distribution of radioactivity.
# System: Rattus norvegicus
# ASSAY EXPLANATION: Distribution of radioactivity was determined in liver at 48 hr after intravenous administration of 1,3-Disubstituted Triacylglycerols in rats
# Type: ADME, organism-based
# RUN PARAMETERS: in vivo
MEASURED PARAMETER: Distribution of radioactivity (% dose/organ)

COMPOUND	MEASURED PARAMETER	VALUE MEASURED
CCCCCCCC/C=C/CCCCCCCC(=O)OC(COC(=O)Cc1c(I)cc(I)c(N)c1I)COC(=O)Cc1c(I)cc(I)c(N)c1I	Distribution of radioactivity	59.7
CCCCCCCC/C=C/CCCCCCCC(=O)OC(COC(=O)CCCCCCc1c(I)cc(I)c(N)c1I)COC(=O)CCCCCCc1c(I)cc(I)c(N)c1I	Distribution of radioactivity	4.4
CCCCCCCC/C=C/CCCCCCCC(=O)OC(COC(=O)C(CC)Cc1c(I)cc(I)c(N)c1I)COC(=O)C(CC)Cc1c(I)cc(I)c(N)c1I (stereo not given)	Distribution of radioactivity	71.6
CCCCCCCC/C=C/CCCCCCCC(=O)OC(COC(=O)CCCCc1c(I)cc(I)c(N)c1I)COC(=O)CCCCc1c(I)cc(I)c(N)c1I	Distribution of radioactivity	26.8
CCCCCCCC/C=C/CCCCCCCC(=O)OC(COC(=O)CCCCCc1c(I)cc(I)c(N)c1I)COC(=O)CCCCCc1c(I)cc(I)c(N)c1I	Distribution of radioactivity	22.4

---

# Test system: Rattus norvegicus
# ASSAY EXPLANATION: Distribution of radioactivity was determined in plasma at 3h after intravenous administration of [125I]-labeled 2-oleoglycerol 1,3-Bis-[omega-(3-amino-2,4,6-triiodophenyl)alkanoates] in rats
# Format: ADME, organism-based
# RUN PARAMETERS: in vivo
Quick rule: Distribution of radioactivity of at least 0.1 % dose/g means y, below that means n.

MOLECULE	TARGET	CLASS
CCCCCCCC/C=C/CCCCCCCC(=O)OC(COC(=O)CCCCc1c(I)cc(I)c(N)c1I)COC(=O)CCCCc1c(I)cc(I)c(N)c1I	Rattus norvegicus	n
CCCCCCCC/C=C/CCCCCCCC(=O)OC(COC(=O)CCCCCc1c(I)cc(I)c(N)c1I)COC(=O)CCCCCc1c(I)cc(I)c(N)c1I	Rattus norvegicus	y
CCCCCCCC/C=C/CCCCCCCC(=O)OC(COC(=O)CCCCCCc1c(I)cc(I)c(N)c1I)COC(=O)CCCCCCc1c(I)cc(I)c(N)c1I	Rattus norvegicus	y
CCCCCCCC/C=C/CCCCCCCC(=O)OC(COC(=O)CCCc1c(I)cc(I)c(N)c1I)COC(=O)CCCc1c(I)cc(I)c(N)c1I	Rattus norvegicus	y
CCCCCCCC/C=C/CCCCCCCC(=O)OC(COC(=O)Cc1c(I)cc(I)c(N)c1I)COC(=O)Cc1c(I)cc(I)c(N)c1I	Rattus norvegicus	n
CCCCCCCC/C=C/CCCCCCCC(=O)OC(COC(=O)C(CC)Cc1c(I)cc(I)c(N)c1I)COC(=O)C(CC)Cc1c(I)cc(I)c(N)c1I (configuration not stated)	Rattus norvegicus	n
CCCCCCCC/C=C/CCCCCCCC(=O)OC(COC(=O)CCc1c(I)cc(I)c(N)c1I)COC(=O)CCc1c(I)cc(I)c(N)c1I	Rattus norvegicus	n

All values here come from ChEMBL document CHEMBL1128242.
